target-desc: T1, CRBN, Q96SW2;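 also: pooled lentiviral library of zinc finger degron-EGFP fusions in mCherry-positive Jurkat cells, FACS-sorted after compound exposure, with degron abundance counted by next-generation sequencing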
T1 chain: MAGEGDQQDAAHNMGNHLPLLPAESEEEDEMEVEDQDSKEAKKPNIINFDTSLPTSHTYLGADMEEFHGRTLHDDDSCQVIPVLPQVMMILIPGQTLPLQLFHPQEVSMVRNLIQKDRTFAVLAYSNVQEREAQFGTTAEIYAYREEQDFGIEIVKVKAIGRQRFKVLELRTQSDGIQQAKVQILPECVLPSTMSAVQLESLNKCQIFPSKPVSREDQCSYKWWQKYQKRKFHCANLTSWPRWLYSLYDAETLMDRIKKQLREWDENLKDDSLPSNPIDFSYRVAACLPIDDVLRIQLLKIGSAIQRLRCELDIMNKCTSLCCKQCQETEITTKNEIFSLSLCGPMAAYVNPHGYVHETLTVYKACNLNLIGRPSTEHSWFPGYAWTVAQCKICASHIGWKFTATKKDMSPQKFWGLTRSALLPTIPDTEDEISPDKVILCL
test-details: log2 fold change of degron read counts, EGFP-low vs EGFP+ sorted cells (limma voom), compound-induced degradation; higher = more compound-induced degradation of the degron-EGFP fusion; degrons are variants of IKZF1/3 zinc finger 2; compound dose not given here
experimental-setup: Jurkat; 18 h; compound: compound 22 (5-morpholino-thalidomide)
Whole data set: some 8,300 sequences, median “log2 fold change of degron read counts, EGFP-low vs EGFP+ sorted cells (limma voom), compound-induced degradation” near -1.1, cut for the highest 2% near 3.2. The full list was thinned out, with the highest values kept by preference.
reported-metric: log2 fold change of degron read counts
Reply with just the number.

Would you kindly share the measured log2 fold change of degron read counts for FCCNQCGREFTQKGNLLRHIKL [46F_47C_49N_50Q_52G_53R_54E_55F_67L_, Q9UKT9] ?
-3.01

Others:
Would you kindly share the measured log2 fold change of degron read counts for LWCPICGFTCTQKGNLLRHIKL [46L_47W_49P_50I_52G_53F_54T_55C_67L_, Q9UKT9] ?
3.71

Data credit: the supplement of paper PMC12645437
